Tested on: Escherichia coli TOP10;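 also: peptides expressed intracellularly from a pBAD plasmid library in pooled LB shake-flask culture, induced with 0.3% L-arabinose, DNA abundance read by NGS, three biological replicates, DESeq2 with apeglm shrinkage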
method notes: shrunken log2 fold change of peptide-encoding DNA abundance (4.5 h post-induction vs induction); higher = less antimicrobial activity (less host growth inhibition)
condition description: time post-induction: 4.5 h; library: site-saturation at positions 5, 18, 19, 20
readout: shrunken log2 fold change

shrunken log2 fold change reported for this sequence RRIRTRPPRLPRPRPRPQPGPRP : 0.165

Kindly note the recorded shrunken log2 fold change for RRIRGRPPRLPRPRPRPNHLPRP , which is -0.226

For RRIRARPPRLPRPRPRPMKSPRP the sequence record lists shrunken log2 fold change as 0.186

# shrunken log2 fold change (sequence: RRIRSRPPRLPRPRPRPSHLPRP ) is -0.265

Per the records, this sequence ( RRIRCRPPRLPRPRPRPGCMPRP ) has shrunken log2 fold change equal to 0.00195

Recorded shrunken log2 fold change (sequence RRIRERPPRLPRPRPRPQKPPRP ): 0.0657

Measured shrunken log2 fold change, RRIRGRPPRLPRPRPRPLNSPRP : 0.181

RRIRSRPPRLPRPRPRPLAIPRP yielded shrunken log2 fold change of -0.0883

RRIRRRPPRLPRPRPRPAQVPRP yielded shrunken log2 fold change of -0.0303

The sequence listed as RRIRWRPPRLPRPRPRPSGKPRP has a reported shrunken log2 fold change of -0.0778

# shrunken log2 fold change of RRIRHRPPRLPRPRPRPYTTPRP = -1.14

The sequence identified as RRIRGRPPRLPRPRPRPICYPRP registered its shrunken log2 fold change at 0.543

// RRIRMRPPRLPRPRPRPPWWPRP : shrunken log2 fold change value = 1.01

Recorded shrunken log2 fold change (sequence RRIRKRPPRLPRPRPRPCLRPRP ): -0.081

get_value(item= RRIRIRPPRLPRPRPRPVGGPRP , readout=shrunken log2 fold change) returns 0.0792

So, RRIRLRPPRLPRPRPRPASAPRP ? Its shrunken log2 fold change was 0.202

For RRIRPRPPRLPRPRPRPQYGPRP the sequence record lists shrunken log2 fold change as -0.725

Notebook: RRIRDRPPRLPRPRPRPTVGPRP , shrunken log2 fold change read as 0.351

// shrunken log2 fold change value for RRIRWRPPRLPRPRPRPTTGPRP : 0.384

Summary for this sequence, RRIRFRPPRLPRPRPRPSTRPRP : shrunken log2 fold change is -0.013

For record RRIRARPPRLPRPRPRPKSTPRP the listed shrunken log2 fold change is 0.28

shrunken log2 fold change reading for RRIRFRPPRLPRPRPRPIDLPRP : -0.164

Quick note, shrunken log2 fold change for RRIRRRPPRLPRPRPRPSSNPRP landed at -0.148

Documented shrunken log2 fold change of RRIRDRPPRLPRPRPRPIFFPRP : 0.0831

// recorded shrunken log2 fold change for RRIRERPPRLPRPRPRPTKQPRP : -0.275

// RRIRKRPPRLPRPRPRPYMFPRP : shrunken log2 fold change value = -0.109

Consider RRIRPRPPRLPRPRPRPQDTPRP . Its measured shrunken log2 fold change is -0.229

Looking up RRIRFRPPRLPRPRPRPVPLPRP , I see its shrunken log2 fold change listed as -0.118

get_value(item= RRIRLRPPRLPRPRPRPNKVPRP , readout=shrunken log2 fold change) returns -0.21

Kindly note the recorded shrunken log2 fold change for RRIRARPPRLPRPRPRPATNPRP , which is 0.317

Measured shrunken log2 fold change of RRIRCRPPRLPRPRPRPQWRPRP : 0.274

Form: sequence = RRIRARPPRLPRPRPRPWDYPRP ; shrunken log2 fold change = 0.00145

# shrunken log2 fold change (sequence: RRIRIRPPRLPRPRPRPAHYPRP ) is -0.153

So, RRIRDRPPRLPRPRPRPAVDPRP ? Its shrunken log2 fold change was -0.0491

Input RRIRMRPPRLPRPRPRPIWQPRP . Output shrunken log2 fold change: -0.224

So for RRIRWRPPRLPRPRPRPFGPPRP , the logged shrunken log2 fold change turned out to be 0.0591

Measured shrunken log2 fold change of RRIRNRPPRLPRPRPRPKEMPRP : -0.0529

Lookup result for RRIRERPPRLPRPRPRPKCVPRP ; measured shrunken log2 fold change: 0.0364

Form: sequence = RRIRIRPPRLPRPRPRPLWEPRP ; shrunken log2 fold change = 0.223

Lookup result for RRIRLRPPRLPRPRPRPESEPRP ; measured shrunken log2 fold change: -0.000997

RRIRQRPPRLPRPRPRPSCAPRP has a reported shrunken log2 fold change of -0.0664

In plain terms, RRIRWRPPRLPRPRPRPTKKPRP has a documented shrunken log2 fold change of 0.0726

GET /value?item= RRIRDRPPRLPRPRPRPVWWPRP &field=shrunken log2 fold change returns -0.00968

Value of measured shrunken log2 fold change for the entry RRIRSRPPRLPRPRPRPHMIPRP : -0.961

Lab note: RRIRLRPPRLPRPRPRPYWQPRP gave shrunken log2 fold change of 0.0322

Record summary for RRIRDRPPRLPRPRPRPMLGPRP : reported shrunken log2 fold change = 0.015

Field shrunken log2 fold change (entry RRIRARPPRLPRPRPRPCYGPRP ) reads -0.246

Query RRIRPRPPRLPRPRPRPLNCPRP yields shrunken log2 fold change of -0.227

Reported shrunken log2 fold change for RRIRRRPPRLPRPRPRPDHDPRP was 0.335

The recorded shrunken log2 fold change for RRIRPRPPRLPRPRPRPTNTPRP is -0.375

Lab book: shrunken log2 fold change of RRIRKRPPRLPRPRPRPWRHPRP noted as 0.094

RRIRWRPPRLPRPRPRPLTRPRP yielded shrunken log2 fold change of 2.04

Consider RRIRKRPPRLPRPRPRPRYDPRP . Its measured shrunken log2 fold change is -0.0842

GET /value?item= RRIRRRPPRLPRPRPRPDVFPRP &field=shrunken log2 fold change returns 0.06

Lab note: measured shrunken log2 fold change of RRIRPRPPRLPRPRPRPLPAPRP was 0.864

Sure, the documented shrunken log2 fold change for RRIRVRPPRLPRPRPRPWFPPRP is -0.641

GET /value?item= RRIRTRPPRLPRPRPRPIPKPRP &field=shrunken log2 fold change returns 0.103

shrunken log2 fold change reading for RRIRPRPPRLPRPRPRPMMVPRP : -0.0739

Record RRIRWRPPRLPRPRPRPWSQPRP . Reported shrunken log2 fold change: 0.298

// sample RRIRTRPPRLPRPRPRPSWPPRP , its shrunken log2 fold change was 0.0669

Looking up RRIRFRPPRLPRPRPRPGWYPRP , I found its shrunken log2 fold change recorded as -0.463

What the record says about RRIRCRPPRLPRPRPRPHTPPRP : shrunken log2 fold change is 0.0337

// shrunken log2 fold change lookup, sequence = RRIRPRPPRLPRPRPRPLLHPRP , result: 0.0277
